# Organism: Rattus norvegicus
# METHOD NOTES: DrugMatrix - Regimen: Daily Repeat
# Format: toxicity, organism-based, Sprague-Dawley
# Design: regimen Daily Repeat, gender Male, age 6-8 weeks
# PROTOCOL CONDITIONS: in vivo, po, 2000 mg/kg, 72 h, tissue Plasma, route oral GAVAGE, dose level High, time 3 day, vehicle .5 % CMC
Labelling field: enter 1 if recorded ALANINE AMINOTRANSFERASE is less than 60 u/L. Enter 0 if it equals or exceeds that cut-off.

In [3]: df
Out[3]:
                                   compound  class_label
0      CN(C/C=C/C#CC(C)(C)C)Cc1cccc2ccccc12            1
1  O=C1Nc2ccc(Cl)cc2C(c2ccccc2Cl)=NC1O (stereo unspecified)            0
2  COc1cc2nc(N3CCN(C(=O)c4ccco4)CC3)nc(N)c2cc1OC            1
3  NC1CCN(c2nc3c(cc2F)c(=O)c(C(=O)O)cn3-c2ccc(F)cc2F)C1 (stereo unspecified)            1
4              CN/C(=N/CCSCc1nc[nH]c1C)NC#N            1
